- measured.target: 11-beta-hydroxysteroid dehydrogenase 1 (Mus musculus, UniProt P50172)
- Sequence (P50172 whole entry): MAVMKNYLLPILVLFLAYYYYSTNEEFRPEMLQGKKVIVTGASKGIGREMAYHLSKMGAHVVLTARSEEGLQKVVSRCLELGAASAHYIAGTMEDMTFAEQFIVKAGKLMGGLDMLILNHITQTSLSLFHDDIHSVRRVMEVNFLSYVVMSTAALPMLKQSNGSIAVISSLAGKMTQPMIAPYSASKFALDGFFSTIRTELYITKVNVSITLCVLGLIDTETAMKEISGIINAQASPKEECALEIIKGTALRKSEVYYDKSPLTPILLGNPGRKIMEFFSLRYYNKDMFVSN
- test: Inhibition of mouse 11beta-HSD1
pIC50: −log10 of the molar value.
The reader will find reported pIC50 values listed item by item below.
measured.quantity: pIC50

> print(dat)
                            smiles.notation                           measured.target  recorded.value
1     N#Cc1c(O)nc(SCc2ccccc2Cl)c2cc(F)ccc12  11-beta-hydroxysteroid dehydrogenase 1 (Mus musculus, UniProt P50172)            8.15
2     N#Cc1c(O)nc(SCc2ccccc2Cl)c2cccc(F)c12  11-beta-hydroxysteroid dehydrogenase 1 (Mus musculus, UniProt P50172)            8.15
3  N#Cc1c(O)nc(S(=O)(=O)Cc2ccccc2Cl)c2c1CCCC2  11-beta-hydroxysteroid dehydrogenase 1 (Mus musculus, UniProt P50172)            6.57
4        N#Cc1c(O)nc(SCc2ccccc2Cl)c2c1CCOC2  11-beta-hydroxysteroid dehydrogenase 1 (Mus musculus, UniProt P50172)            7.68
5   N#Cc1ccc2c(C#N)c(O)nc(SCc3ccccc3Cl)c2c1  11-beta-hydroxysteroid dehydrogenase 1 (Mus musculus, UniProt P50172)            7.21
6      N#Cc1c(O)nc(SCc2ccc(Cl)cc2)c2c1CCCC2  11-beta-hydroxysteroid dehydrogenase 1 (Mus musculus, UniProt P50172)            7.60
7        COc1ccccc1CSc1nc(O)c(C#N)c2c1CCCC2  11-beta-hydroxysteroid dehydrogenase 1 (Mus musculus, UniProt P50172)            8.05
8  N#Cc1c2c(c(SCc3c(Cl)cccc3Cl)[nH]c1=O)CCCC2  11-beta-hydroxysteroid dehydrogenase 1 (Mus musculus, UniProt P50172)            8.52
